Test: Ivermectin concentration in the blood plasma of cattle after oral administration
Format: in vivo
Settings: oral 600 μg/kg (per pure IVM), FORMULA I compound per Example 1 No 1
assayEndpoint: Cmax (µM)
Give your result in µM as a bare value.

Exam item: // lookup Cmax for CCC(C)C1OC2(CCC1C)CC1CC(CC=C(C)C(OC3CC(OC)C(OC4CC(OC)C(O)C(C)O4)C(C)O3)C(C)C=CC=C3COC4C(O)C(C)=CC(C(=O)O1)C34O)O2 (stereo not shown) [ivermectin, Ivermectin]
Marked response: 0.35

Hey, just so you know, these numbers are from patent US20250213601A1.
